Exercise: state measured z-score for each of the compounds provided.
assay: plasmodial surface anion channel blockers, osmotic lysis – cell-based, P. falciparum Indochina, OD700, 18 h, primary screen (AID 1157); conditions: P. falciparum Indochina infected erythrocytes, osmotic lysis OD700, 18 h; higher = more signal, called active from +8 up or from −8 down
When you answer, write just the number.

Which z-score reading was recorded for the compound C=C(CCCC)C(=O)CC[C@@H](OC(C)=O)c1ccc(CO)o1 ?
0.184

Which z-score reading was recorded for the compound COC(=O)[C@]1(Cc2ccccc2)N=C(c2ccc(OCCCO)cc2)O[C@@H]1c1ccccc1N=[N+]=[N-] ?
4.33

Which z-score reading was recorded for the compound C=C(CCCC)/C(=C/C[C@@H](OC(C)=O)c1ccccc1OCCO)c1cc(C(=O)OC)ccc1OC ?
1.71

Which z-score reading was recorded for the compound [N-]=[N+]=Nc1ccccc1C[C@]1(C(=O)NCC(O)CO)N=C(c2ccc(OCCCO)cc2)O[C@H]1c1ccccc1 (some centres undefined) ?
1.18

---

assay: small molecules captured by biotinylated probe aFGF10 – biochemical, small-molecule microarray, fluorescence 635/667, stem cell growth factor project, primary screen (AID 1071); settings: higher = more signal;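 further: score merges 667 nm spot intensity and signal to noise from triplicate slides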
quantity-kind: composite z-score

Which composite z-score reading was recorded for the compound COc1ccc([Si](C)(C)[C@H]2[C@H](CCO)O[C@@]3(C(=O)N(Cc4ccccc4)c4ccc(N5CCCCC5=O)cc43)[C@@H]2C)cc1 ?
0.74

Which composite z-score reading was recorded for the compound COc1ccc(NC(=O)O[C@H]2[C@H](OC(=O)c3cc4ccccc4[nH]3)[C@@H](OC(=O)c3cc4ccccc4[nH]3)[C@@H](OC)O[C@@H]2CO)cc1 ?
0.528

Which composite z-score reading was recorded for the compound CCOC(=O)C[C@H]1[C@H](OC(=O)c2ccc(C(=O)c3ccccc3)cc2)[C@@H](NC(=O)c2ccccc2)c2cc(OCCCO)ccc2N1C(=O)c1ccccc1 ?
0.683

---

Exercise: state measured composite z-score for each of the molecules provided.
tested on: Neuregulin-1 EGF-like domain; test: small molecules binding NRG1 EGF domain – biochemical, small-molecule microarray, 635 nm fluorescence, primary screen (AID 1081); conditions: higher = more signal;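 further: binding of the protein to compounds printed on small-molecule microarray slides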
When you answer, write just the number.

Record lookup: for Neuregulin-1 EGF-like domain, what composite z-score belongs to NCCCCCCNC(=O)[C@H]1C[C@H]2C(=O)N[C@@H](Cc3ccccc3)C(=O)N2[C@H]1c1cccc(OCCO)c1 ?
0.922

Record lookup: for Neuregulin-1 EGF-like domain, what composite z-score belongs to CCCC(=O)N(CCc1c[nH]c2ccccc12)[C@@H]1CC(C(=O)NCCO)=C[C@H](Oc2c(I)cc(CO)cc2OC)[C@H]1O ?
0.315

Record lookup: for Neuregulin-1 EGF-like domain, what composite z-score belongs to COC(=O)[C@@]1(Cc2ccc(OC)cc2)[C@H]2c3cc(C(=O)N4CCCC4)n(CCCNc4ncc(C(F)(F)F)cc4Cl)c3C[C@H]2CN1C(=O)c1ccccc1 ?
0.709

Record lookup: for Neuregulin-1 EGF-like domain, what composite z-score belongs to C=CC[C@]1(C(=O)NCc2ccccc2)N=C(c2ccc(OCCCO)cc2)O[C@H]1c1ccccc1CN=[N+]=[N-] ?
1.11

Record lookup: for Neuregulin-1 EGF-like domain, what composite z-score belongs to O=C(NCc1ccccc1)[C@@H]1c2ccccc2C(=O)N(C2Cc3ccccc3C2)[C@H]1c1ccc(CO)cc1 ?
0.971

Record lookup: for Neuregulin-1 EGF-like domain, what composite z-score belongs to [N-]=[N+]=NCc1ccccc1[C@@H]1OC(c2ccc(OCCCO)cc2)=N[C@]1(CCS(=O)(=O)c1ccccc1)C(=O)N1CCCCC1 ?
1.28

Record lookup: for Neuregulin-1 EGF-like domain, what composite z-score belongs to C=C(CCCC)/C(=C/C[C@H](OC(=O)c1ccncc1)c1ccc(OCCO)cc1)c1cc(C(=O)OC)ccc1OC ?
1.01

Record lookup: for Neuregulin-1 EGF-like domain, what composite z-score belongs to COC(=O)c1c2oc(c1C(=O)OC)C(=O)N[C@@H](C(C)C)Cn1cc(nn1)C1(CCCCC1)NC(=O)N[C@H](CO)CC2 ?
0.859

Record lookup: for Neuregulin-1 EGF-like domain, what composite z-score belongs to Cc1ccc(S(=O)(=O)N2C[C@@H](C(=O)O)[C@H](Sc3ccccc3)C[C@H]2c2ccccc2)cc1 ?
1.12

Record lookup: for Neuregulin-1 EGF-like domain, what composite z-score belongs to CN(C)CCCCCCNC(=O)[C@@H]1C[C@@H]2C(=O)N[C@@H](CCCC[N+](C)(C)C)C(=O)N2[C@@H]1c1ccc(O)cc1 ?
1.25

Record lookup: for Neuregulin-1 EGF-like domain, what composite z-score belongs to C=CC[C@@]1(C(=O)N2CCCCC2)N=C(c2ccc(OCCCO)cc2)O[C@@H]1c1ccccc1N=[N+]=[N-] ?
1.23

Record lookup: for Neuregulin-1 EGF-like domain, what composite z-score belongs to O=C1[C@@]23C=C(Br)[C@H](C[C@@H]2COC3)[C@]12CO2 ?
-1.15

Record lookup: for Neuregulin-1 EGF-like domain, what composite z-score belongs to C[N+](C)(C)CCCC[C@@H]1NC(=O)[C@H]2C[C@@H](C(=O)NCCCCCCNC(=O)CS)[C@@H](c3ccc(O)cc3)N2C1=O ?
1.41

Record lookup: for Neuregulin-1 EGF-like domain, what composite z-score belongs to O=C1C2C=CC(C(O)c3ccc4c(c3)OCO4)N(Nc3ccc([N+](=O)[O-])cc3)C2C(=O)N1c1ccccc1 (stereo not given) ?
0.65

Record lookup: for Neuregulin-1 EGF-like domain, what composite z-score belongs to CC(C)CNC(=O)[C@@]1(Cc2ccccc2I)c2ccccc2C(=O)N(Cc2ccccc2C(F)(F)F)[C@H]1c1ccc(CO)cc1 ?
-0.13

Record lookup: for Neuregulin-1 EGF-like domain, what composite z-score belongs to COc1ccc(CCNC(=O)[C@@]2(c3ccc([N+](=O)[O-])cc3)CC(=O)N(CC34CC5CC(CC(C5)C3)C4)[C@@H]2c2ccc(CO)cc2I)cc1 ?
1.2

Record lookup: for Neuregulin-1 EGF-like domain, what composite z-score belongs to COC(=O)[C@@]1(Cc2ccc(F)cc2)[C@H]2c3cc(C(=O)N(C)C)n(Cc4cc(C)n(C)n4)c3C[C@H]2CN1C(=O)c1ccccc1 ?
1.29

Record lookup: for Neuregulin-1 EGF-like domain, what composite z-score belongs to C=CCN1Cc2ccccc2[C@@H]2OC(c3ccc(OCCCO)cc3)=N[C@]2(CCS(=O)(=O)c2ccccc2)C1=O ?
1.24

Record lookup: for Neuregulin-1 EGF-like domain, what composite z-score belongs to COc1ccc(NN2C(C(O)c3ccc(N(C)C)cc3)C=CC3C(=O)N(C4CCCCC4)C(=O)C32)cc1 (stereo not given) ?
1.15

Record lookup: for Neuregulin-1 EGF-like domain, what composite z-score belongs to C=CCC(OC(C)=O)[C@@H]1[C@@H](N(Cc2ccc(-c3ccccc3)cc2)C(=O)Cc2ccc(F)cc2)c2cc(OCCCO)ccc2N1C(=O)c1ccc2ccccc2c1 (stereo not given in full) ?
-0.31

Record lookup: for Neuregulin-1 EGF-like domain, what composite z-score belongs to Cc1ccc([C@H]2C(C(=O)O)=CCN2S(=O)(=O)c2ccc(C)cc2)cc1 ?
1.1

Record lookup: for Neuregulin-1 EGF-like domain, what composite z-score belongs to CC(C)Cc1ccc(CN2CC[C@@H](N)C2)cc1 ?
-1.11

Record lookup: for Neuregulin-1 EGF-like domain, what composite z-score belongs to CCCCC(=C=CC[C@@H](O)c1ccc(CO)o1)CCO ?
1.19

Record lookup: for Neuregulin-1 EGF-like domain, what composite z-score belongs to CC(C)(C)OC(=O)CC[C@@]1(C(=O)N2CCCCC2)N=C(c2ccc(OCCCO)cc2)O[C@@H]1c1ccccc1 ?
1.23

Record lookup: for Neuregulin-1 EGF-like domain, what composite z-score belongs to CCCCN1CC=CC23O[C@@H]4/C=C\CCCOC(=O)C4[C@H]2C(=O)N(CCCO)[C@@H]3C1=O (stereo not given in full) ?
1.46

Record lookup: for Neuregulin-1 EGF-like domain, what composite z-score belongs to COc1ccc([Si](C)(C)[C@H]2[C@H](CCn3cc([C@H](O)c4ccccc4)nn3)O[C@@]3(C(=O)N(C)c4ccccc43)[C@@H]2C)cc1 ?
0.553

Record lookup: for Neuregulin-1 EGF-like domain, what composite z-score belongs to COCCOC(=O)N1C(=O)[C@@]2(c3cc(C#CCCO)ccc31)[C@H](c1ccc(O)cc1)N1[C@H](c3ccccc3)[C@H](c3ccccc3)OC(=O)[C@H]1[C@@H]2C(=O)N1CCN(c2ncccn2)CC1 ?
1.24

Record lookup: for Neuregulin-1 EGF-like domain, what composite z-score belongs to [N-]=[N+]=Nc1ccccc1C[C@@]1(C(=O)N2CCCCC2)N=C(c2ccc(OCCCO)cc2)O[C@@H]1c1ccccc1N=[N+]=[N-] ?
1.17

Record lookup: for Neuregulin-1 EGF-like domain, what composite z-score belongs to OCCCC1=CC(C2CC2)N(Cc2cccc(OC(F)(F)F)c2)CC1 (stereo not given) ?
0.677

Record lookup: for Neuregulin-1 EGF-like domain, what composite z-score belongs to C=C(C(=O)CC[C@H](OC(C)=O)c1ccccc1OCCO)C(C)C ?
-0.862
